All values here come from ChEMBL document CHEMBL1212758.

system: Macacine alphaherpesvirus 1; experiment: Antiviral activity against Macacine herpesvirus 1 isolate MP1 infected in african green monkey Vero cells by plaque reduction assay; assay type: functional, organism-based; details: Macacine alphaherpesvirus 1, isolate MP1, Vero
ENDPOINT_LABEL: EC50 (µM)
Report the value in µM with no unit label.

| STRUCTURE | ENDPOINT_LABEL | READING_UNIT | VALUE |
| --- | --- | --- | --- |
| Nc1nc2c(ncn2COCCO)c(=O)[nH]1 | EC50 | µM | 19.3 |

Okay, now this compound:
[in] What does the data say about its EC50? Entry: Nc1ncnc2c1ncn2[C@@H]1O[C@H](CO)[C@@H](O)[C@@H]1O
[out] 26.5

* * *

system: Macacine alphaherpesvirus 1; test: Ratio of acyclovir EC50 to compound EC50 for Macacine herpesvirus 1 isolate MR6 infected in african green monkey Vero cells; type: functional
ENDPOINT_LABEL: Ratio EC50
Please respond with just the number, no unit label.

| MOLECULE | VALUE |
| --- | --- |
| Cc1cn([C@H]2O[C@@H](CO)[C@H](O)[C@H]2F)c(=O)[nH]c1=O | 100 |
| Nc1nc(=O)n([C@@H]2O[C@H](CO)[C@@H](O)[C@@H]2F)cc1Br | 10 |
| Cc1cn([C@@H]2O[C@H](CO)[C@@H](O)[C@@H]2F)c(=O)nc1N | 10 |

Okay, now this molecule:
[in] What does the data say about its Ratio EC50? Entry: CCc1cn([C@H]2O[C@@H](CO)[C@H](O)[C@H]2F)c(=O)[nH]c1=O (single isomer, unassigned)
[out] 100

* * *

system: Macacine alphaherpesvirus 1; assay: Ratio of acyclovir EC50 to compound EC50 for Macacine herpesvirus 1 isolate MR2 infected in african green monkey Vero cells; assay type: functional
ENDPOINT_LABEL: Ratio EC50
Please respond with just the number, no unit label.

The examples below pair each entry with its known result.
| MOLECULE | VALUE |
| --- | --- |
| Cc1cn([C@H]2O[C@@H](CO)[C@H](O)[C@H]2F)c(=O)[nH]c1=O | 100 |
| Cc1cn([C@@H]2O[C@H](CO)[C@@H](O)[C@@H]2F)c(=O)nc1N | 10 |
| Nc1nc(=O)n([C@@H]2O[C@H](CO)[C@@H](O)[C@@H]2F)cc1Br | 10 |

Okay, now this molecule:
[in] Record CCc1cn([C@H]2O[C@@H](CO)[C@H](O)[C@H]2F)c(=O)[nH]c1=O (single isomer, unassigned) : what is its Ratio EC50 with Macacine alphaherpesvirus 1?
[out] 100

* * *

Entries and their Ratio EC50
tested on: Macacine alphaherpesvirus 1; test: Ratio of acyclovir EC50 to compound EC50 for Macacine herpesvirus 1 isolate MR8 infected in african green monkey Vero cells; assay type: functional
Please respond with just the number, no unit label.

The examples below pair each entry with its known result.
| COMPOUND | Ratio EC50 |
| --- | --- |
| Cc1cn([C@@H]2O[C@H](CO)[C@@H](O)[C@@H]2F)c(=O)nc1N | 10 |
| Nc1nc(=O)n([C@@H]2O[C@H](CO)[C@@H](O)[C@@H]2F)cc1Br | 10 |

[in] What does the data say about its Ratio EC50? Entry: Cc1cn([C@H]2O[C@@H](CO)[C@H](O)[C@H]2F)c(=O)[nH]c1=O
[out] 100

[in] What does the data say about its Ratio EC50? Entry: CCc1cn([C@H]2O[C@@H](CO)[C@H](O)[C@H]2F)c(=O)[nH]c1=O (single isomer, unassigned)
[out] 100
